Origin of values: patent US20220064272A1

- test-target: T1, TauC3 (C-terminally truncated tau fragment ending at aspartate 421 of htau40) (human, UniProt P10636 1-738)
- T1 construct: Generated and purified by Genscript; also called Human TauC3; recombinant TauC3 protein
- T1 sequence (P10636 other isoform, or with tags, fused parts or gaps): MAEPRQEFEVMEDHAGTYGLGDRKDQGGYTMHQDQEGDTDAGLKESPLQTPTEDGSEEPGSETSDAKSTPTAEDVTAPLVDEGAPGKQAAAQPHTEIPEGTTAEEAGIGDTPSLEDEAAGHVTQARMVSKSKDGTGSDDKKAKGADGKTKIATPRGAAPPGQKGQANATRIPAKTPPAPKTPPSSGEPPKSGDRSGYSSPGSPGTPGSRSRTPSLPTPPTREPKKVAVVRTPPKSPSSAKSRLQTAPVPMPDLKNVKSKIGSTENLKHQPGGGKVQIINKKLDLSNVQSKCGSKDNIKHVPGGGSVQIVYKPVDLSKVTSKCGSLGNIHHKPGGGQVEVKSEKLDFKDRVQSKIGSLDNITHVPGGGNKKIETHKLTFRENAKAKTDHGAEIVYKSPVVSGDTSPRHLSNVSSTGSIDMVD
- assay-details: binding ELISA on coated TauC3, OD650; left table (HC variants)
pEC50: −log10 of the molar value.
Form field: pEC50 (one value per entry).
assay-endpoint: pEC50

[[record]]
binder = "Tau01 HCKL (antibody, V domains shown, human IgG4 kappa (HuG4K)) VH: LVQLVESGGGLVQPGGSLKLSCAASGFTFNTYAMNWVRQASGKGLEWVGRIRSKSNNYATYYAASVKGRFTISRDDSKSMAYLQMDSLKTEDTAVYYCVGGGDFWGQGTLVTVSS VL: DIQMTQSPSSLSASVGDRVTITCRASQEISVYLSWFQQKPGKAIKRLIYGAFKLQSGVPSRFSGSRSGTEYTLTISSLQPEDFATYYCLQYVRYPWTFGGGTKVEIK"
assay_endpoint = "pEC50"
recorded_value = 9.08

[[record]]
binder = "Tau01 HCKI (antibody, V domains shown, human IgG4 kappa (HuG4K)) VH: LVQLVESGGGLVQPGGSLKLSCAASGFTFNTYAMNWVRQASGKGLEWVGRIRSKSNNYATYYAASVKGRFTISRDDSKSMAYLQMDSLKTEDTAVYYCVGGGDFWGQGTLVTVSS VL: DIQMTQSPSSLSASVGDRVTITCRASQEISVYLGWYQQKPGKAPKRLIYGAFKLQSGVPSRFSGSRSGTEYTLTISSLQPEDFATYYCLQYVRYPWTFGGGTKVEIK"
assay_endpoint = "pEC50"
recorded_value = 9.18

